The reported measurements were obtained from PubChem BioAssay AID504382.

- MEASUREMENT PROTOCOL: IANBD-channel fluorescence artefacts in buffer – biochemical, artefact control for cardiac RTF calcium sensitizer project, confirmation (AID 504382)
- SETUP CONDITIONS: IANBD fluorescence interference counterscreen, EC20 Ca2+, at 7.2 µM, stronger effect = higher value, scaled: EC20 calcium 0, EC100 calcium 100
Hit rate of the full screen: of about 2,500 compounds, about 460 (18%) were called active. A selection follows.
MEASURE: fluorescence artifact activation (%)

{"COMPOUND": "CC(=O)N1C(=O)C(=C2C=C(C)OC(C)=C2)c2ccccc21", "EXPERIMENTAL VALUE": 21.3}
{"COMPOUND": "O=C(NCC1CCCO1)c1ccc2c(c1)C(=O)N(c1cccc([N+](=O)[O-])c1)C2=O (configuration not stated)", "EXPERIMENTAL VALUE": 14}
{"COMPOUND": "CC(C)(CN1CCc2ccccc2C1)NS(=O)(=O)c1ccc(Cl)cc1", "EXPERIMENTAL VALUE": 0.2}
{"COMPOUND": "C[n+]1ccc(/C=C/c2c[nH]c3ccccc23)cc1", "EXPERIMENTAL VALUE": 57.3}
{"COMPOUND": "CN1CCC/C1=C/C=C1\\SC(=S)NC1=O", "EXPERIMENTAL VALUE": 0.02}
{"COMPOUND": "C/C=C/c1ccc(OCCCNCC(C)O)c(OC)c1 (configuration not stated)", "EXPERIMENTAL VALUE": 112}
{"COMPOUND": "COc1ccc(-n2c(O)c(/C=N/NS(=O)(=O)c3cc(C)ccc3C)c3ccccc3c2=O)cc1OC", "EXPERIMENTAL VALUE": 0.84}
{"COMPOUND": "O=C(CSc1nc2ncc(Br)cc2[nH]1)c1cccc([N+](=O)[O-])c1", "EXPERIMENTAL VALUE": 3.54}
{"COMPOUND": "Cn1cccc1/C=C1/SC(=S)N(CC(=O)O)C1=O", "EXPERIMENTAL VALUE": 52.3}
{"COMPOUND": "CCOc1ccc2cc(/C=C/C(=O)c3ccco3)c(Cl)nc2c1", "EXPERIMENTAL VALUE": 0.34}
{"COMPOUND": "Cc1noc(C)c1S(=O)(=O)N(C)C[C@H]1Oc2ccc(NC(=O)CCC(F)(F)F)cc2C(=O)N([C@H](C)CO)C[C@@H]1C", "EXPERIMENTAL VALUE": 0.08}
{"COMPOUND": "CN1C(=O)/C(=C\\C=C2/CCCN2C)N(C)C1=S", "EXPERIMENTAL VALUE": 56.9}
{"COMPOUND": "Cc1ccc(N/C=C2/Sc3ccccc3NC2=O)cc1", "EXPERIMENTAL VALUE": 0.14}
{"COMPOUND": "COc1ccc(C2C(C(=O)c3ccccc3)N3c4ccccc4C=CC3C2[N+](=O)[O-])cc1 (configuration not stated)", "EXPERIMENTAL VALUE": 10.3}
{"COMPOUND": "CC(=O)c1ccc2noc(-c3ccc(C)cc3)c2c1", "EXPERIMENTAL VALUE": 0.23}
{"COMPOUND": "O=C(CSc1nc2cc(Cl)ccc2s1)c1cc2ccccc2o1", "EXPERIMENTAL VALUE": 39.2}
{"COMPOUND": "CC(C)(C)NC(=O)CSc1nnc(-c2ccccn2)n1-c1ccccc1", "EXPERIMENTAL VALUE": 0.09}
{"COMPOUND": "CC1=CC(=C(C#N)c2nc3ccccc3s2)C=C(C)N1c1ccc(F)cc1", "EXPERIMENTAL VALUE": 11.2}
{"COMPOUND": "COc1ccc2c(n1)Sc1nc3ccccc3nc1N2", "EXPERIMENTAL VALUE": 0.01}
{"COMPOUND": "COc1c(Cl)ccc(Cl)c1C(=O)NCc1ccco1", "EXPERIMENTAL VALUE": 0.03}
{"COMPOUND": "FC(F)(F)c1cccc(-c2nc(COc3ccc(Cl)cc3Cl)no2)c1", "EXPERIMENTAL VALUE": 2280}
{"COMPOUND": "CCN1/C(=C/C=C2/SC(=Nc3cccc4ncccc34)N(C)C2=O)Sc2ccccc21", "EXPERIMENTAL VALUE": 11.5}
{"COMPOUND": "CS(=O)(=O)N(CC(=O)O)Cc1cccc(CN(CC(=O)O)S(C)(=O)=O)c1", "EXPERIMENTAL VALUE": 0.86}
{"COMPOUND": "CCN(CC)S(=O)(=O)c1ccc2[nH]c(=O)[nH]c2c1", "EXPERIMENTAL VALUE": 0.38}
{"COMPOUND": "C[n+]1ccc(/C=C/c2c[nH]c3ccc(F)cc23)cc1", "EXPERIMENTAL VALUE": 0.16}
{"COMPOUND": "C[C@@H](C(=O)N1CCNCC1)n1cc(CCCN=C(N)N)nn1", "EXPERIMENTAL VALUE": 29.3}
{"COMPOUND": "CC[n+]1ccc(/C=C/c2c[nH]c3ccccc23)cc1", "EXPERIMENTAL VALUE": 59.8}
{"COMPOUND": "C(=Cc1c[nH]c2ccccc12)c1nccc2ccccc12", "EXPERIMENTAL VALUE": 1.55}
{"COMPOUND": "COc1ccc(-n2c(O)c(/C=N/NS(=O)(=O)c3ccc(C)cc3)c3ccccc3c2=O)cc1OC", "EXPERIMENTAL VALUE": 12.8}
{"COMPOUND": "CC(C)c1ccc(OCC(=O)NC(Cc2c[nH]c3ccccc23)C(=O)O)cc1 (configuration not stated)", "EXPERIMENTAL VALUE": 0.01}
{"COMPOUND": "O=C(NCC1CCCO1)c1cccc2c1C(=O)c1ccc(N3CCC(Cc4ccccc4)CC3)cc1S2(=O)=O (configuration not stated)", "EXPERIMENTAL VALUE": 0.63}
{"COMPOUND": "Cc1cc(=O)oc2c3c(cc(OCC(=O)NCc4ccccn4)c12)OC(C)(C)CC3", "EXPERIMENTAL VALUE": 0.25}

* * *

This section presents compounds with their documented fluorescence artifact activation values.
- MEASUREMENT PROTOCOL: IANBD-channel fluorescence artefacts in buffer – biochemical, artefact control for cardiac RTF calcium sensitizer project, confirmation (AID 504382)
- SETUP CONDITIONS: IANBD fluorescence interference counterscreen, EC20 Ca2+, at 7.2 µM, stronger effect = higher value, scaled: EC20 calcium 0, EC100 calcium 100
Hit rate of the full screen: of about 2,500 compounds, about 460 (18%) were called active. The list is a sample of the results.
MEASURE: fluorescence artifact activation (%)

{"COMPOUND": "COc1ccc(Cl)cc1NC(=O)CN(C)C(=O)COc1ccccc1F", "UNIT NAME": "%", "EXPERIMENTAL VALUE": 0.35}
{"COMPOUND": "Cc1ccc(C)c(C(=O)CCC(=O)NCc2ccc(Cl)cc2)c1", "UNIT NAME": "%", "EXPERIMENTAL VALUE": 0.14}
{"COMPOUND": "COc1ccc(C2c3ccc(O)cc3Oc3ncn(CCN4CCOCC4)c(=N)c32)cc1OC (stereo not drawn)", "UNIT NAME": "%", "EXPERIMENTAL VALUE": 5.12}

* * *

- MEASUREMENT PROTOCOL: IANBD-channel fluorescence artefacts in buffer – biochemical, artefact control for cardiac RTF calcium sensitizer project, confirmation (AID 504382)
- SETUP CONDITIONS: IANBD fluorescence interference counterscreen, EC20 Ca2+, at 7.2 µM, stronger effect = higher value, scaled: EC20 calcium 0, EC100 calcium 100
About 460 (18%) of roughly 2,500 compounds were called active. A selection follows.

{"COMPOUND": "CCNC(=S)N/N=C/c1sc(N2CCCCC2)nc1-c1cccs1", "fluorescence artifact activation, %": 0.09}
{"COMPOUND": "CCOc1ccc(NC(=O)c2cccc(OC(=S)N3CCOCC3)c2)cc1", "fluorescence artifact activation, %": 0}
{"COMPOUND": "COc1ccc(OC(C)C(=O)Nc2cccc(OC)c2)cc1 (centres undefined)", "fluorescence artifact activation, %": 0.45}
{"COMPOUND": "O=c1oc2ccccc2cc1-c1nc(-c2cccs2)cs1", "fluorescence artifact activation, %": -0.04}

* * *

- MEASUREMENT PROTOCOL: IANBD-channel fluorescence artefacts in buffer – biochemical, artefact control for cardiac RTF calcium sensitizer project, confirmation (AID 504382)
- SETUP CONDITIONS: IANBD fluorescence interference counterscreen, EC20 Ca2+, at 7.2 µM, stronger effect = higher value, scaled: EC20 calcium 0, EC100 calcium 100
In all, about 2,500 compounds went through this assay and about 460 (18%) were called active. A selection follows.

{"MOLECULE": "CN(C)C=NC(=O)c1cc(C(=O)c2ccccc2Cl)c[nH]1", "UNIT NAME": "%", "fluorescence artifact activation": 0.08}
{"MOLECULE": "O=C(NCC(=O)N(CC1CCCO1)C1(C(=O)NC2CCCCC2)CCCCC1)c1ccccc1 (stereo unspecified)", "UNIT NAME": "%", "fluorescence artifact activation": -0.09}
{"MOLECULE": "CCOC(=O)c1c(-c2ccccc2)csc1NC(=O)/C(C#N)=C/c1ccc(O)c(OC)c1", "UNIT NAME": "%", "fluorescence artifact activation": 6.3}
{"MOLECULE": "COc1ccc(-c2c(C#N)c(N)nc3sc(C(=O)c4ccccc4)c(N)c23)cc1", "UNIT NAME": "%", "fluorescence artifact activation": 0.01}
{"MOLECULE": "CCN1/C(=C2\\SC(=S)N(Cc3ccccc3)C2=O)Sc2ccccc21", "UNIT NAME": "%", "fluorescence artifact activation": 0.08}
{"MOLECULE": "CN1CCS/C1=C/C=C1/SC(=S)N(Cc2ccccc2)C1=O", "UNIT NAME": "%", "fluorescence artifact activation": -0.03}
